Attribute: APTT
- TEST_DETAILS: Cynomolgus monkey tolerability, coagulation (Example 34)
- Assay type: in vivo
- APPLIED_CONDITIONS: cynomolgus monkeys, 35 mg/kg subcutaneously, day 44
The response must be a number in s with no trailing unit.

These recorded examples may help you get a feel for the data.
1198605 (GTAATATTGCAATCTG; modified gapmer, further chemistry not given here) [compound 1198605]	23
1197270 (TTAAAGTGTATGTCAG; cEt gapmer with 2'-OMe nucleoside, phosphorothioate, further chemistry not given here) [compound 1197270]	17
1198831 (CACTTTTACATTAGGA; chemically modified gapmer, further chemistry not given here) [compound 1198831]	18
958499 (ATTAGAGTATGTGGCA; 3-10-3 cEt gapmer, further chemistry not given here) [compound 958499]	18

query: May I ask what APTT has been recorded for 1076453 (GTAATATTGCAATCTG; 3-10-3 cEt gapmer, further chemistry not given here) [compound 1076453] ?
result: 20

---

Yap1 mRNA, % UTC overview
- Test system: Yap1 mRNA
- TEST_DETAILS: Dose-dependent inhibition of human Yap1 in A-431 cells (Example 7, 10,000 cells per well, RTS36584)
- Format: cell-based
- APPLIED_CONDITIONS: Table 59, 4000.00 nM, free uptake, A-431 cells 10,000 cells per well, 48 hours
Strand notation (5' to 3'): a small letter for the sugar, then the base; units joined by * are phosphorothioate-linked, units joined directly phosphodiester-linked; [ ] holds rarer units or linkages, { } end groups; capitals alone tell only the bases. k = constrained ethyl (cEt); [5mC] = 5-methylcytosine; d = 2'-deoxy (DNA)
Quick note: number first, unit second.

Some solved cases for reference:
958798 (kT*kG*k[5mC]*dA*dG*dT*dA*dT*dA*dA*dT*dA*dT*k[5mC]*k[5mC]*kT; antisense) [compound 958798]	12 % UTC
958507 (kG*kA*kG*d[5mC]*dA*dG*dA*dT*dA*dA*dT*d[5mC]*dG*kA*kG*kA; antisense) [compound 958507]	19 % UTC

Lab note: next substance to report on.
query: GET /values?readout=Yap1 mRNA, % UTC&system=Yap1 mRNA&item= 958737 (kG*kG*kA*dA*dT*dA*d[5mC]*dA*dA*dG*d[5mC]*d[5mC]*d[5mC]*kG*kA*kG; antisense) [compound 958737]
result: 29 % UTC

---

- System: Yap1 mRNA
- TEST_DETAILS: Antisense inhibition of human Yap1 in A-431 cells by cEt gapmers, single dose (Example 4, RTS4814)
- Assay type: cell-based
- APPLIED_CONDITIONS: Yap1 mRNA remaining as percent of untreated control; 3-10-3 cEt gapmers; A-431 cells; Table 37
Strand notation (5' to 3'): a small letter for the sugar, then the base; units joined by * are phosphorothioate-linked, units joined directly phosphodiester-linked; [ ] holds rarer units or linkages, { } end groups; capitals alone tell only the bases. k = constrained ethyl (cEt); [5mC] = 5-methylcytosine; d = 2'-deoxy (DNA)
Rule: measured YAP1 (% UTC) below 40 % UTC gets t; anything equal to or greater than 40 % UTC gets f.

Check out these entries, answers already filled in.
1075191 (kA*k[5mC]*kG*dG*dG*dA*dA*dA*dG*dA*dA*dA*dG*kG*k[5mC]*k[5mC]; antisense) [compound 1075191]	f
1075959 (kG*kA*kT*dT*dA*dT*dT*dA*dT*dT*dG*d[5mC]*dA*kG*k[5mC]*kT; antisense) [compound 1075959]	t
1076471 (k[5mC]*kA*kT*dT*dA*dG*dA*d[5mC]*dT*dA*dG*dG*d[5mC]*kT*kT*kT; antisense) [compound 1076471]	t
1075511 (k[5mC]*kA*kA*dT*dA*dT*dT*dA*dT*d[5mC]*dT*dG*dA*kG*k[5mC]*kT; antisense) [compound 1075511]	f
1075447 (antisense k[5mC]*kA*k[5mC]*dT*dA*dT*dA*dA*dA*dT*d[5mC]*d[5mC]*dT*k[5mC]*kA*kT) [compound 1075447]	f
1075991 (kA*kT*kA*dT*dA*dG*dG*dA*d[5mC]*d[5mC]*dA*d[5mC]*dG*kA*k[5mC]*kT; antisense) [compound 1075991]	f
1074935 (antisense kA*k[5mC]*kA*dG*dG*dA*dG*dA*d[5mC]*dT*dA*dT*dA*k[5mC]*kA*kA) [compound 1074935]	f
1076119 (kG*kT*kT*dA*dA*dA*dT*dA*dT*dG*dA*dA*dT*kT*kG*kG; antisense) [compound 1076119]	t

query: Does 1074519 (kA*k[5mC]*kT*dA*d[5mC]*dT*dA*dG*dT*d[5mC]*dA*dT*dG*kT*kA*kT; antisense) [compound 1074519] have YAP1 (% UTC) strictly under 40 % UTC?
result: f

query: For this substance, is YAP1 (% UTC) lower than 40 % UTC? 1076407 (antisense kG*kT*kA*dT*dT*dA*dT*dT*dT*dA*dA*dG*dA*k[5mC]*k[5mC]*kT) [compound 1076407]
result: t

query: Say whether its YAP1 (% UTC) is strictly beneath 40 % UTC. Entry: 1076151 (kT*kA*kT*dT*dT*dA*dT*dT*dA*dA*d[5mC]*dT*d[5mC]*kA*k[5mC]*kG; antisense) [compound 1076151]
result: t

query: YAP1 (% UTC) under 40 % UTC? Item: 1075255 (kA*kA*kA*dT*dA*dT*d[5mC]*d[5mC]*dG*dT*dG*dT*d[5mC]*k[5mC]*kT*k[5mC]; antisense) [compound 1075255]
result: t

query: I'd appreciate it if you could check whether 1074711 (antisense kA*k[5mC]*kT*d[5mC]*dT*dA*dG*dA*dA*d[5mC]*dA*dG*d[5mC]*kT*kG*k[5mC]) [compound 1074711] has YAP1 (% UTC) smaller than 40 % UTC.
result: t

---

- Test system: Yap1 mRNA
- TEST_DETAILS: Dose-dependent inhibition of human Yap1 in A-431 cells (Example 8, 10,000 cells per well, RTS4814)
- Format: cell-based
- APPLIED_CONDITIONS: 31.3 nM; A-431 cells
Strand notation (5' to 3'): a small letter for the sugar, then the base; units joined by * are phosphorothioate-linked, units joined directly phosphodiester-linked; [ ] holds rarer units or linkages, { } end groups; capitals alone tell only the bases. k = constrained ethyl (cEt); [5mC] = 5-methylcytosine; d = 2'-deoxy (DNA)
PARAMETER_MEASURED: % UTC (Yap1 mRNA)

1076406 (antisense kA*kT*kT*dA*dT*dT*dT*dA*dA*dG*dA*d[5mC]*d[5mC]*kT*kG*kG) [compound 1076406]	51 % UTC

query: Quick check: % UTC (Yap1 mRNA) of 1075093 (k[5mC]*kA*kA*dA*dG*dT*dA*dA*dG*dG*dT*dA*dT*kG*kA*kG; antisense) [compound 1075093] ?
result: 74 % UTC

query: Would you kindly share the measured % UTC (Yap1 mRNA) for 1074613 (DNA k[5mC]*kA*kT*dA*dG*d[5mC]*dT*dT*dA*dT*dA*dT*dT*kG*kA*kA; antisense) [compound 1074613] ?
result: 63 % UTC

query: Consider the substance shown here: 1074548 (kA*kT*k[5mC]*dT*dA*d[5mC]*d[5mC]*dG*dT*dA*dT*dG*d[5mC]*k[5mC]*k[5mC]*kA; antisense) [compound 1074548] What is its recorded % UTC (Yap1 mRNA)?
result: 50 % UTC

query: Name the reported % UTC (Yap1 mRNA) value associated with the substance 1075061 (antisense k[5mC]*k[5mC]*kT*dT*dA*dT*dA*d[5mC]*dT*dT*dT*dT*dA*kG*k[5mC]*k[5mC]) [compound 1075061]
result: 58 % UTC

query: Reported % UTC (Yap1 mRNA) for 1076023 (kA*kT*kA*dA*dT*dT*dA*dG*dA*dT*dG*d[5mC]*dT*kG*kA*k[5mC]; antisense) [compound 1076023] : what is it?
result: 60 % UTC

query: Could you share which % UTC (Yap1 mRNA) value was measured for 1076084 (k[5mC]*kA*kT*d[5mC]*dA*dA*dT*dA*dG*dA*dG*dA*dG*kT*k[5mC]*kG; antisense) [compound 1076084] ?
result: 69 % UTC

query: Entry under review: 1076471 (k[5mC]*kA*kT*dT*dA*dG*dA*d[5mC]*dT*dA*dG*dG*d[5mC]*kT*kT*kT; antisense) [compound 1076471] . Reported % UTC (Yap1 mRNA)?
result: 64 % UTC

query: % UTC (Yap1 mRNA) for 1076085 (kA*k[5mC]*kT*dA*dA*dT*dA*dG*dG*d[5mC]*d[5mC]*dA*dT*k[5mC]*kT*kG; antisense) [compound 1076085] ?
result: 70 % UTC

query: What value of measured % UTC (Yap1 mRNA) is listed for 1074549 (DNA kT*kA*kT*d[5mC]*dT*dA*d[5mC]*d[5mC]*dG*dT*dA*dT*dG*k[5mC]*k[5mC]*k[5mC]; antisense) [compound 1074549] ?
result: 67 % UTC

query: Entry under review: 1074230 (antisense kA*kA*kG*dA*dA*dG*dA*d[5mC]*dT*dG*dT*d[5mC]*dG*kA*kA*kG) [compound 1074230] . Reported % UTC (Yap1 mRNA)?
result: 62 % UTC

query: What value of measured % UTC (Yap1 mRNA) is listed for 1074580 (DNA kA*k[5mC]*k[5mC]*dA*d[5mC]*dT*dA*dT*dA*dA*dA*dG*d[5mC]*kT*kT*kA; further chemistry not given here) [compound 1074580] ?
result: 55 % UTC
